TESTED_SYSTEM: AhR (Homo sapiens)
Construct: expressed in transfected cells; host or cells: HepG2
Sequence (P35869 11-848): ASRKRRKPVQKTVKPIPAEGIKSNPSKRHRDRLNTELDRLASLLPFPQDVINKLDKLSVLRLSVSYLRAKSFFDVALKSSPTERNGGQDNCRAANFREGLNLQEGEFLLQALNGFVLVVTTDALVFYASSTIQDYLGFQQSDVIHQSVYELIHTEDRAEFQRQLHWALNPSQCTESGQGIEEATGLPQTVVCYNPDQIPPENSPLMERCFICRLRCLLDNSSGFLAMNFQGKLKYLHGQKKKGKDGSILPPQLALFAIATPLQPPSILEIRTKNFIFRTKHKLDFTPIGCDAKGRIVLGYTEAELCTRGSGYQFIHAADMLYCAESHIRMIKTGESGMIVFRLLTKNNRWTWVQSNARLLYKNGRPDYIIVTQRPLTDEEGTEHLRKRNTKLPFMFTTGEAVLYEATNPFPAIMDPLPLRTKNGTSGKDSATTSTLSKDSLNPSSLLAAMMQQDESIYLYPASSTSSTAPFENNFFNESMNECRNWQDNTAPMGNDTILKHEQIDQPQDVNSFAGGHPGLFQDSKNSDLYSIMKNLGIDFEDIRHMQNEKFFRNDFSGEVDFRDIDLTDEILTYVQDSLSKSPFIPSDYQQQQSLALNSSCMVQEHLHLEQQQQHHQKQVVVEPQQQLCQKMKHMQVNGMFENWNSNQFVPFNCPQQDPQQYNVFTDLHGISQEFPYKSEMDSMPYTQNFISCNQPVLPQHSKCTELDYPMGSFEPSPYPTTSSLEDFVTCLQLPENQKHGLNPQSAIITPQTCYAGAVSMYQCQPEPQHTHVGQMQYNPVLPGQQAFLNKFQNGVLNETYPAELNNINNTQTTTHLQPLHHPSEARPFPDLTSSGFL
PROTOCOL_SUMMARY: AhR agonism luciferase reporter gene assay in transfected HepG2 cells
Assay type: cell-based
RUN_CONDITIONS: drug concentration 0.1 μM; 16 h; ratio of treatment group to blank
Each entry falls in a class defined on AhR receptor agonistic fold; the bands are 0 (below 5 fold), 1 (5 fold to below 7 fold), 2 (7 fold or more)

In [3]: df
Out[3]:
                                    molecule  classification
 0  CC(C)c1c(O)cc(/C=C/c2ccc(F)cc2)cc1O [Reference 2#, reference compound]               0
 1    Oc1cc(/C=C/c2ccc(F)cc2)cc(O)c1C1CCCCC1               1
 2    Oc1cc(/C=C/c2ccc(Cl)cc2)cc(O)c1C1CCCC1               0
 3  Oc1cc(/C=C/c2cc(F)c(F)c(F)c2)cc(O)c1C1CCCCC1               2
 4     Oc1cc(/C=C/c2cccc(F)c2)cc(O)c1C1CCCC1               1
 5        Oc1cc(/C=C/c2ccccc2)cc(O)c1C1CCCC1               0
 6       Oc1cc(/C=C/c2ccccc2)cc(O)c1C1CCCCC1               1
 7  Oc1cc(/C=C/c2ccc(F)c(F)c2F)cc(O)c1C1CCCCC1               2
 8  Oc1cc(/C=C/c2ccc(F)c(F)c2)cc(O)c1C1CCCCC1               1
 9    Oc1cc(/C=C/c2ccc(Br)cc2)cc(O)c1C1CCCC1               2
10  Oc1cc(/C=C/c2cc(F)cc(F)c2)cc(O)c1C1CCCCC1               2
11   Oc1cc(/C=C/c2cccc(Cl)c2)cc(O)c1C1CCCCC1               0
12   Oc1cc(/C=C/c2ccc(Br)cc2)cc(O)c1C1CCCCC1               1
13  CC(C)c1c(O)cc(/C=C/c2ccccc2)cc1O [Reference 1#, Benvitimod, reference compound]               0
14     Oc1cc(/C=C/c2ccc(F)cc2)cc(O)c1C1CCCC1               1
15  O=Cc1c2[nH]c3ccccc3c2cc2[nH]c3ccccc3c12 [Reference 3#, FICZ, reference compound]               0

----------
TESTED_SYSTEM: AhR (Homo sapiens, UniProt P35869)
Construct: expressed in transfected cells; host or cells: HepG2
PROTOCOL_SUMMARY: AhR agonism luciferase reporter gene assay in transfected HepG2 cells
Type: cell-based
RUN_CONDITIONS: drug concentration 0.1 μM; 16 h; ratio of treatment group to blank
Each entry below lists one item and its recorded AhR receptor agonistic fold value.
READOUT_LABEL: AhR receptor agonistic fold (fold)

>>> df
                               smiles_text                       tested_system                readout_label  units_label  measured
0  Oc1cc(/C=C/c2cccc(F)c2F)cc(O)c1C1CCCCC1  AhR (Homo sapiens, UniProt P35869)  AhR receptor agonistic fold         fold       6.8
1  Oc1cc(/C=C/c2ccc(Cl)cc2)cc(O)c1C1CCCCC1  AhR (Homo sapiens, UniProt P35869)  AhR receptor agonistic fold         fold       5.1
2    Oc1cc(/C=C/c2ccccc2Cl)cc(O)c1C1CCCCC1  AhR (Homo sapiens, UniProt P35869)  AhR receptor agonistic fold         fold       4.9
